- Tested on: HCT-116
- assay-text: Inhibition of TNF-alpha-induced Nuclear factor-kappa-B dependent transcriptional activity in human HCT116 cells assessed normalized inhibitory ratio of at 10 uM for 12 hrs by NF-kappaB cis-acting luciferase reporter gene assay relative to untreated control
- Format: cell-based
Entries and their measured Ratio follow.
readout: Ratio

[[record]]
smiles_record = "COc1ccc2c(=O)c(-c3ccc(OC)c(OC)c3)coc2c1"
readout = "Ratio"
endpoint_result = 0.45

[[record]]
smiles_record = "Cc1c(O)ccc2c(=O)c(-c3ccccc3)coc12"
readout = "Ratio"
endpoint_result = 0.45

[[record]]
smiles_record = "COc1cc(O)c2c(=O)c(-c3ccc(O)cc3)coc2c1"
readout = "Ratio"
endpoint_result = 0.34

[[record]]
smiles_record = "COc1cc(C)c2c(=O)c(-c3ccccc3)coc2c1"
readout = "Ratio"
endpoint_result = 0.67

[[record]]
smiles_record = "COc1ccc(-c2coc3cc(O)ccc3c2=O)cc1OC"
readout = "Ratio"
endpoint_result = 2.53

